Biological target: T1, muCDH19(44-247)::huCDH19(250-364)::muCDH19(363-770) with Flag tag (construct F, Hu EC3) (human/mouse chimera)
T1 construct: leader left out; the entry starts at residue 44; also called C137911
Test: flow cytometry, transfected 293T cells
Recorded Metric: binding result

1) anti-CDH19 antibody 2G6 (Ab ID 13588) (antibody, human IgG1, lambda, V domains shown, Bin 4) VH: QVQLVESGGGVVQPGRSLRLSCAASGFTFSSYGMHWVRQAPGKGLEWVAFIWYDGSNKYYADSVKDRFTISRDNSKNTLYLQMKSLRAEDTAVYYCARRAGIIGTIGYYYGMDVWGQGTTVTVSS VL: SYELTQPPSVSVSPGQTASITCSGDRLGEKYTCWYQQRPGQSPLLVIYQDTKRPSGIPERFSGSNSGNTATLTISGTQAMDEADYYCQAWDSSTVVFGGGTKLTVLG: binds
2) hu anti-<huCDH19> 4B10 (1-471)(R17G) VH::huIgG1z + 4B10 (1-236)(H45Q,A90T) VL::huKLC (Ab ID 14054) (antibody, V domains shown, Engineered variant of 4B10; the entries already carry the changes; Bin 4) VH: QVQLVESGGGVVQPGGSLRLSCAASGFTFSSYDMHWVRQAPGKGLEWVAVISYDGTNEYYADSVKGRFTISRDTSKNTLYLQMNSLRAEDTAVYYCARERYFDWSFDYWGQGTLVSVSS VL: EIVLTQSPGTLSLSPGERATLSCRASQSVSNTYLAWYQQRPGQAPRLLIYGASSRATGIPDRFSGSGSGTDFTLTISSLEPEDFAVYYCQQYSNSWTFGQGTKVEIKR: binds
3) hu anti-<huCDH19> 2G6 (1-477)(R17G) VH::huIgG1z + 23A10.3 (1-231)(C42S) VL::huLLC-C2 (Ab ID 14304) (antibody, V domains shown, light chain is that of 23A10.3 (C42S); Bin 4) VH: QVQLVESGGGVVQPGGSLRLSCAASGFTFSSYGMHWVRQAPGKGLEWVAFIWYDGSNKYYADSVKDRFTISRDNSKNTLYLQMKSLRAEDTAVYYCARRAGIIGTIGYYYGMDVWGQGTTVTVSS VL: SYELTQPPSVSVSPGQTASITCSGDRLGEKYVSWYQQKPGQSPILVIYQDNKWPSGIPERFSGSNSGNTATLTISGTQAMDEADYYCQAWDSSTVVFGGGTKLTVLG: binds

# credit: patent US20220127354A1
